- Tested on: Brain-Specific Receptors (3H-benzodiazepine binding)
- measurement-description: Inhibition of the Binding of 3H-Benzodiazepine to Brain-Specific Receptors of Rats
- Parameters: species or system rat (male albino, Wistar strain; whole cortex)
- condition-label: 3H-diazepam (1.5 nM) or 3H-flunitrazepam (1.0 nM); rat cortex P2-fraction; 30 minutes in ice; test concentration not given
For each entry below, report its % Inhibition value.
Numbers only; they are read as %.

Sample CCCCCCCCNC(=O)c1ccc(NC(=NC(=O)c2cccc(C)c2)NC(=O)c2cccc(C)c2)cc1 — what was its % Inhibition?
16

Query: % Inhibition; subject: Cc1cccc(C(=O)N=C(NC(=O)c2cccc(C)c2)Nc2cccc(C(N)=O)c2)c1
17

Return reported % Inhibition; argument: COc1ccc(C(=O)NC(=NC(=O)c2ccc(C)cc2)Nc2cccc(C(N)=O)c2)cc1
12

What % Inhibition value was documented for this compound, Cc1ccc(C(=O)N=C(NC(=O)c2ccc(Br)cc2)Nc2ccc(C(N)=O)cc2)cc1 ?
57

Dear colleague, I am looking for the recorded % Inhibition of the following compound: NC(=O)c1ccc(NC(=NC(=O)Cc2ccccc2)NC(=O)c2ccccc2)cc1
22

I have this compound here, COc1ccc(C(=O)NC(=NC(=O)c2ccsc2)Nc2ccc(C(N)=O)cc2)cc1 , and I need its recorded % Inhibition.
14

Query: % Inhibition; subject: Cc1ccc(C(=O)NC(=NC(=O)c2cccc(C)c2)Nc2ccc(C(N)=O)cc2)cc1
85

State the recorded % Inhibition for this entry: COc1ccc(C(=O)NC(=NC(=O)c2cccs2)Nc2cccc(C(N)=O)c2)cc1
19

Query (compound): CN(C)C(=O)c1ccc(NC(=NC(=O)c2ccccc2)NC(=O)c2ccccc2)cc1 ; field requested: % Inhibition
14
